- Tested on: DeltatarO mutant
- Assay procedure: S. aureus survival, RN4220 and DeltatarO strains – OD600, teichoic acid synthesis inhibitors, primary screen (AID 463173)
- Measurement setup: S. aureus RN4220 wild type/DeltatarO growth, OD600, 18 h, screened at 18.75 µg/mL (by protocol)
The campaign covered roughly 52,000 compounds. About 4,300 (8.3%) were called active. No stated cut-off is given here; in the data, active means survival mostly below about 52% (no sharp cut-off); inactive means mostly above about 56%. The full list was thinned out, with actives kept by preference.
A correct response names exactly one class from yes for active, no for inactive

Field: example entries. Status: answers known.
Molecule | Classification
COc1ccc(NC(=O)CCNS(=O)(=O)c2cccc3nonc23)cc1 | yes
CCOC(=O)c1c(C)oc2ccc(N(C(=O)c3ccncc3)S(=O)(=O)c3ccc(F)cc3C)cc12 | no
CCc1ccc(C(=O)CC2(O)C(=O)N(Cc3ccc(C)cc3)c3ccccc32)cc1 (stereo not given) | no
Cc1ccc(C(=O)CC2(O)C(=O)N(Cc3ccccc3)c3ccccc32)c(C)c1 (stereo not given) | yes

Which result was noted for this molecule in the test: "Cc1ccc(C)c(Oc2nc3c(c(=O)n(C)c(=O)n3C)n2Cc2ccccc2)c1"
yes

Which result was noted for this molecule in the test: CCCCC(CC)Cn1c(Oc2ccccc2)nc2c1c(=O)n(C)c(=O)n2C (stereo not given)
yes

Which result was noted for this molecule in the test: "COc1cccc(C(=O)Nc2nnc(S(=O)(=O)N3CCCC3)s2)c1"
yes

###

- Tested on: DeltatarO mutant
- Assay procedure: S. aureus survival, RN4220 and DeltatarO strains – OD600, teichoic acid synthesis inhibitors, primary screen (AID 463173)
- Measurement setup: S. aureus RN4220 wild type/DeltatarO growth, OD600, 18 h, stronger effect = lower value, screened at 18.75 µg/mL (by protocol)
Among all 52,000 compounds or so, about 4,300 (8.3%) were called active. This excerpt belongs to a sample that is enriched for actives.
// boundary case: survival equal to 90% maps to Not satisfied; strictly smaller maps to Satisfied

Compound | Classification
Cc1ccc(NC(=O)C2CCCN2S(=O)(=O)c2ccc3c(c2)n(C)c(=O)c(=O)n3C)cc1C (configuration not stated) | Not satisfied
CCC(=O)c1cc2c(cc1NC(=O)c1ccccc1F)OCCO2 | Satisfied
CCOc1ccc(-c2nc(SCC(=O)c3ccccc3)n[nH]2)cc1 | Not satisfied
COc1ccc(OCCCCn2c(C3CC(=O)N(c4cccc(Cl)c4)C3)nc3ccccc32)cc1 (configuration not stated) | Satisfied
Cc1nc(SCC(=O)Nc2ccc(C)c(Cl)c2)cc(-c2ccccc2)n1 | Satisfied

In plain terms, does "COC(=O)c1ccccc1NC(=O)CSc1cc(-c2ccccc2)nc(C)n1" come in under 90% for survival?
Satisfied

In plain terms, does "CCOc1ccccc1-c1nc(SCC(=O)c2ccc(OC)c(Br)c2)n[nH]1" come in under 90% for survival?
Satisfied

In plain terms, does Cc1ccc(NC(=O)C2CCCN2S(=O)(=O)c2ccc3c(c2)n(C)c(=O)c(=O)n3C)cc1 (configuration not stated) come in under 90% for survival?
Satisfied

In plain terms, does "Cc1ccc(C)c2c(N)c3c(nc12)CCCCC3" come in under 90% for survival?
Not satisfied

In plain terms, does "O=C(Nc1cc2c(cc1C(=O)c1cccc(Br)c1)OCCO2)c1ccccc1F" come in under 90% for survival?
Satisfied

In plain terms, does "COc1ccccc1-c1nc(SCC(=O)Nc2ccc(C)c(C)c2)n[nH]1" come in under 90% for survival?
Satisfied
